EXPERIMENTAL_TARGET: T1, CodY (wild type, C-terminal His5) (Bacillus subtilis, UniProt P39779 2-259)
T1 sequence: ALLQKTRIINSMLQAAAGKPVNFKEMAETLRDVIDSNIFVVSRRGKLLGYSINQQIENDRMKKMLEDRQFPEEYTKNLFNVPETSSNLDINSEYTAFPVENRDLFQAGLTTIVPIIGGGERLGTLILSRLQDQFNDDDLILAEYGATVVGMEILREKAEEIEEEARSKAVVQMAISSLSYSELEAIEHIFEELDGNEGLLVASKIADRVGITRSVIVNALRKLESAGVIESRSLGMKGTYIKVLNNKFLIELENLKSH
RUN_DESCRIPTION: EMSA; 10 mM Ile/Leu/Val; apparent Kd, CodY monomer; C2 predominant; EMSA: 20 mM Tris-Cl pH 8.0, 50 mM KCl, 2 mM MgCl2, 5% glycerol, 0.5 mM EDTA, 1 mM DTT, 0.05% Nonidet P, salmon sperm DNA (printed 40-25 ug/ml), room temperature 16 min, +/-10 mM ILV
CONDITION_INFO: protein: recombinant; tags: C-terminal His5; chain copies: 2; label: 32P 5' on one strand; blunt
QUANTITY_KIND: Kd (nM)

BINDER: BcaPp8(31) (dsDNA) DNA 1: TAAAAAATTTGTCGAATTTTCTGAAAATTTT DNA 2: AAAATTTTCAGAAAATTCGACAAATTTTTTA
MEASURED_NUMBER: 1.6
